assay: Lipophilicity, chromatographic hydrophobicity index of the compound at pH 5.5 by HPLC method; type: physicochemical; conditions: buffer
property: CHI

compound=COC(=O)CC[C@H](NC(=O)c1ccc2c(c1)/C(=C/c1[nH]c(C)c(C(=O)O)c1C)C(=O)N2)C(=O)OC reported=54
compound=COC(=O)c1ccc2c(c1)/C(=C/c1[nH]c(C)c(C(=O)N[C@@H](Cc3ccccc3)C(=O)OC)c1C)C(=O)N2 reported=89
compound=COC(=O)[C@H](Cc1ccccc1)NC(=O)c1ccc2c(c1)/C(=C/c1[nH]c(C)c(C(=O)N[C@@H](Cc3ccccc3)C(=O)O)c1C)C(=O)N2 reported=60
compound=COC(=O)[C@H](Cc1ccccc1)NC(=O)c1c(C)[nH]c(/C=C2\C(=O)Nc3ccc(C(=O)N[C@@H](Cc4ccccc4)C(=O)O)cc32)c1C reported=60

I: COC(=O)CC[C@H](NC(=O)c1c(C)[nH]c(/C=C2\C(=O)Nc3ccc(C(=O)N[C@@H](Cc4ccccc4)C(=O)OC)cc32)c1C)C(=O)OC
II: Cc1[nH]c(/C=C2\C(=O)Nc3ccc(C(=O)N[C@@H](Cc4ccccc4)C(=O)O)cc32)c(C)c1C(=O)O
Record comparison, field CHI: mark the lower of I and II . In your reply, give the label of the chosen option.
II

I: COC(=O)CC[C@H](NC(=O)c1c(C)[nH]c(/C=C2\C(=O)Nc3ccc(C(=O)OC)cc32)c1C)C(=O)OC
II: COC(=O)CC[C@H](NC(=O)c1c(C)[nH]c(/C=C2\C(=O)Nc3ccc(C(=O)N[C@@H](Cc4ccccc4)C(=O)O)cc32)c1C)C(=O)OC
Endpoint returns whichever of I and II has the numerically higher CHI. In your reply, give the label of the chosen option.
I

Hello, the source for this data is ChEMBL document CHEMBL4190404, in case you need it.
